- system.name: EBOV GP ectodomain residues 1-636 (GPec) (Zaire ebolavirus, strain  …, UniProt Q05320)

binder	binding result
5.6.c3014 (antibody, V domains shown) VH: QVQLVESGGGVVQPGRSLRLSCAASGFSFNSYGMHWVRQAPGKGLEWVAIIWYDGSDKYYADSVKGRFTISRDNSKNTLSLQMNSLRVEDSAVYYCARDPGHPSDLYYYYGMDVWGQGTTVTVSS VL: DIQMTQSPSSVSASVGDRVTITCRASQDISYWLAWYQQKPGKAPKLLIYSASSLQSGVPSRFSGSGSGTDFTLTISSLQPEDFATYYCQQTHTFPITFGQGTRLEIK	binds
5.6.c2569 (antibody, V domains shown) VH: QVQLQESGPGLVKPSGTLSLTCAVSGGSISSPNWWSWVRQSPEKGLEWIGEVFHSGSTNYNPSLKSRATISVDNSKNQFSLRLTSVTAADTAIYYCARDLGWLVHGYFDPWGQGILVTVSS VL: EIVLTQSPGTLSLSPGERATLSCRAGQSVSSSYVAWYQQKPGQAPRLLIYDTSSRATGIPDRFSGSGSGTDFTLTISRLEPEDFAVYYCQQYGTSRTWTFGQGTRVEIK	binds
5.6.c3023 (antibody, V domains shown) VH: QVQLVESGGGVVQPGRSLRLSCAASGFTFRTYGLHWVRQAPGKGLEWVAFISNDGSSKYNVDSVKGRFTISRDNPKNTLYLQMNSLRTEDTAVYYCAKDTISVAIYGHFDTWGQGTLVTVSS VL: DVVMTQSPLSLPVTLGQPASISCRSSQSLVKSDGNTYLNWFQQRPGQSPRRLIYKVSTRDTGVPDRFSGSGSGTDFTLKISRVEAEDVAVYYCMQATHWPITFGGGTTVEIK	binds
